Assay: AUC (0 to 24 hrs) in Sprague-Dawley rat at 2 mg/kg
Format: ADME, organism-based
Parameters: time < 24 hr, dose 2 mg/kg
Settings: plasma
readout_label: AUC(0-t) at 24 h (µg·h/mL)
One number for each entry, in µg·h/mL.

Item COc1cc2nccc(Oc3ccc4c(C(=O)Nc5ccc(Cl)cc5)cccc4c3F)c2cc1OC has what recorded AUC(0-t) at 24 h?
6.01

* * *

Assay: Clearance in dog at 1 mg/kg, iv
Type: ADME, organism-based, Canis lupus familiaris
Design: dose 1 mg/kg, route intravenous
Conditions: in vivo
readout_label: clearance (mL/min/kg)
Answers are plain numbers, in mL/min/kg.

Give the measured clearance of COc1cc2nccc(Oc3ccc4c(C(=O)Nc5ccc(Cl)cc5)cccc4c3)c2cc1OC.CS(=O)(=O)O .
1.67

* * *

Assay: Half life in Sprague-Dawley rat at 1 mg/kg, iv
Type: ADME, organism-based
Set-up: dose 1 mg/kg, route intravenous
Settings: in vivo
readout_label: half-life (min)
Give bare numbers, in min.

Sample answers from the record:
COc1cc2nccc(Oc3ccc4c(C(=O)Nc5ccncc5)cccc4c3)c2cc1OC    108
COc1cc2nccc(Oc3ccc4c(C(=O)Nc5ccccn5)cccc4c3)c2cc1OC    366

Next item in the queue.
Item under review: COc1cc2nccc(Oc3ccc4c(C(=O)Nc5cccnc5)cccc4c3)c2cc1OC . Reported half-life?
66

* * *

Assay: Half life in Sprague-Dawley rat at 0.5 mg/kg, iv
Type: ADME, organism-based
Design: dose 0.5 mg/kg, route intravenous
Conditions: in vivo
readout_label: half-life (h)
Answers are plain numbers, in h.

# lookup: half-life of COc1cc2nccc(Oc3ccc4c(C(=O)Nc5cc(C)no5)cccc4c3)c2cc1OC
2.4

* * *

Experiment: Cmax in human HT29 cell xenografted CD1 nu/nu mouse at 3 mg/kg, po
Format: ADME, organism-based, HT-29
Design: dose 3 mg/kg, route oral
Settings: in vivo
readout_label: Cmax (nM)
One number for each entry, in nM.

Give its Cmax value. Item: COc1cc2nccc(Oc3ccc4c(C(=O)Nc5ccc(Cl)cc5)cccc4c3)c2cc1OC
500

* * *

System: Plasma
Assay: Plasma concentration in CD1 nu/nu mouse at 30 mg/kg, po
Format: ADME, organism-based
Design: dose 30 mg/kg, route oral
Conditions: in vivo
readout_label: concentration (µM)
Answers are plain numbers, in µM.

Record COc1cc2nccc(Oc3ccc4c(C(=O)Nc5ccc(Cl)cc5)cccc4c3)c2cc1OC : what is its concentration with Plasma?
4

* * *

Tested on: Plasma
Test: Plasma concentration in CD1 nu/nu mouse at 100 mg/kg, po
Type: ADME, organism-based
Design: dose 100 mg/kg, route oral
Conditions: in vivo
readout_label: concentration (µM)
One number for each entry, in µM.

Look up concentration for this compound: COc1cc2nccc(Oc3ccc4c(C(=O)Nc5ccc(Cl)cc5)cccc4c3)c2cc1OC
10.3

* * *

Test: Oral bioavailability in cynomolgus monkey at 10 mg/kg, po
Assay type: ADME, organism-based, Macaca fascicularis
Conditions: in vivo
readout_label: bioavailability (%)
Give bare numbers, in %.

Which bioavailability is listed for COc1cc2nccc(Oc3ccc4c(C(=O)Nc5ccc(Cl)cc5)cccc4c3)c2cc1OC.CS(=O)(=O)O ?
62

* * *

Assay: Cmax in Sprague-Dawley rat at 2 mg/kg
Type: ADME, organism-based
Design: dose 2 mg/kg
Details: in vivo
readout_label: Cmax (ng/mL)
One number for each entry, in ng/mL.

What value of Cmax has been recorded for this entry: COc1cc2nccc(Oc3ccc4c(C(=O)Nc5ccc(Cl)cc5)cccc4c3F)c2cc1OC
610
